System: Pseudomonas aeruginosa ATCC 27853
Protocol: Injectable formulations on mice infected with peritonitis
Type: in vivo, ICR mice
Experimental Setup: 0.2 mg/kg via tail vein, twice a day for 3 days, n = 10
Non-standard residues stand in square brackets, D forms with d. Residues, ends and D or L forms follow the SMILES beside them. d2Nal = N[C@H](Cc1ccc2ccccc2c1)C(=O)O; dNle = CCCC[C@@H](N)C(=O)O
Measured Quantity: Number of mice that died on each day after infection: day 1

[[record]]
compound = "CC(=O)N[C@H](CCCNC(=N)N)C(=O)N[C@H](CCCNC(=N)N)C(=O)N[C@H](CC(C)C)C(=O)N[C@H](CC(C)C)C(=O)N[C@H](Cc1ccc2ccccc2c1)C(=O)N[C@H](CCCNC(=N)N)C(=O)N[C@H](CC(C)C)C(=O)N[C@H](CCCNC(=N)N)C(=O)N[C@H](Cc1ccc2ccccc2c1)C(=O)N[C@H](CCCNC(=N)N)C(=O)N[C@H](CCCNC(=N)N)C(N)=O [LV-1] (Ac-[dR][dR][dL][dL][d2Nal][dR][dL][dR][d2Nal][dR][dR]-NH2)"
result = "1 Mouse"

[[record]]
compound = "CC(=O)N[C@H](CCCNC(=N)N)C(=O)N[C@H](CCCCN)C(=O)N[C@H](CC(C)C)C(=O)N[C@H](CC(C)C)C(=O)N[C@H](Cc1ccc2ccccc2c1)C(=O)N[C@H](CCCCN)C(=O)N[C@H](CC(C)C)C(=O)N[C@H](CCCCN)C(=O)N[C@H](Cc1ccc2ccccc2c1)C(=O)N[C@H](CCCCN)C(=O)N[C@H](CCCNC(=N)N)C(N)=O [LV-18] (Ac-[dR][dK][dL][dL][d2Nal][dK][dL][dK][d2Nal][dK][dR]-NH2)"
result = "2 Mouse"

[[record]]
compound = "CCCC[C@@H](NC(=O)[C@@H](CCCCN)NC(=O)[C@@H](CCCNC(=N)N)NC(C)=O)C(=O)N[C@H](CCCC)C(=O)N[C@H](Cc1ccc2ccccc2c1)C(=O)N[C@H](CCCNC(=N)N)C(=O)N[C@H](CCCC)C(=O)N[C@H](CCCCN)C(=O)N[C@H](Cc1ccc2ccccc2c1)C(=O)N[C@H](CCCNC(=N)N)C(=O)N[C@H](CCCCN)C(N)=O [LV-12] (Ac-[dR][dK][dNle][dNle][d2Nal][dR][dNle][dK][d2Nal][dR][dK]-NH2)"
result = "2 Mouse"

[[record]]
compound = "CC(=O)N[C@H](CCCCN)C(=O)N[C@H](CCCCN)C(=O)N[C@H](CC(C)C)C(=O)N[C@H](CC(C)C)C(=O)N[C@H](Cc1ccc2ccccc2c1)C(=O)N[C@H](CCCNC(=N)N)C(=O)N[C@H](CC(C)C)C(=O)N[C@H](CCCCN)C(=O)N[C@H](Cc1ccc2ccccc2c1)C(=O)N[C@H](CCCNC(=N)N)C(=O)N[C@H](CCCCN)C(N)=O [LV-19] (Ac-[dK][dK][dL][dL][d2Nal][dR][dL][dK][d2Nal][dR][dK]-NH2)"
result = "3 Mouse"

[[record]]
compound = "CC(=O)N[C@H](CCCNC(=N)N)C(=O)N[C@H](CCCCN)C(=O)N[C@H](CC(C)C)C(=O)N[C@H](CC(C)C)C(=O)N[C@H](Cc1ccccc1)C(=O)N[C@H](CCCNC(=N)N)C(=O)N[C@H](CC(C)C)C(=O)N[C@H](CCCCN)C(=O)N[C@H](Cc1ccccc1)C(=O)N[C@H](CCCNC(=N)N)C(=O)N[C@H](CCCCN)C(N)=O [LV-2] (Ac-[dR][dK][dL][dL][dF][dR][dL][dK][dF][dR][dK]-NH2)"
result = "3 Mouse"


// switching to the query compound
Ask: # input compound: CC(=O)N[C@H](CCCNC(=N)N)C(=O)N[C@H](CCCCN)C(=O)N[C@H](CC(C)C)C(=O)N[C@H](CC(C)C)C(=O)N[C@H](Cc1ccc2ccccc2c1)C(=O)N[C@H](CCCNC(=N)N)C(=O)N[C@H](CC(C)C)C(=O)N[C@H](CCCCN)C(=O)N[C@H](Cc1ccc2ccccc2c1)C(=O)N[C@H](CCCNC(=N)N)C(=O)N[C@H](CCCCN)C(N)=O [LV-20] (Ac-[dR][dK][dL][dL][d2Nal][dR][dL][dK][d2Nal][dR][dK]-NH2) ; wanted: its Number of mice that died on each day after infection: day 1
Result: 2 Mouse

###

Test system: Pseudomonas aeruginosa ATCC 27853
Protocol: Injectable formulations on mice infected with peritonitis
Format: in vivo, ICR mice
Experimental Setup: 5 mg/kg via tail vein, twice a day for 3 days, n = 10
Non-standard residues stand in square brackets, D forms with d. Residues, ends and D or L forms follow the SMILES beside them. d2Nal = N[C@H](Cc1ccc2ccccc2c1)C(=O)O; dNle = CCCC[C@@H](N)C(=O)O
Measured Quantity: Number of mice that died on each day after infection: day 5 (Mouse)
Answers are plain numbers, in Mouse.

Consider the following illustrative entries.
[[record]]
compound = "CC(=O)N[C@H](CCCNC(=N)N)C(=O)N[C@H](CCCCN)C(=O)N[C@H](CC(C)C)C(=O)N[C@H](CC(C)C)C(=O)N[C@H](Cc1ccc2ccccc2c1)C(=O)N[C@H](CCCCN)C(=O)N[C@H](CC(C)C)C(=O)N[C@H](CCCCN)C(=O)N[C@H](Cc1ccc2ccccc2c1)C(=O)N[C@H](CCCCN)C(=O)N[C@H](CCCNC(=N)N)C(N)=O [LV-18] (Ac-[dR][dK][dL][dL][d2Nal][dK][dL][dK][d2Nal][dK][dR]-NH2)"
target_desc = "Pseudomonas aeruginosa ATCC 27853"
numeric_readout = 0

[[record]]
compound = "CCCC[C@@H](NC(=O)[C@@H](CCCCN)NC(=O)[C@@H](CCCNC(=N)N)NC(C)=O)C(=O)N[C@H](CCCC)C(=O)N[C@H](Cc1ccc2ccccc2c1)C(=O)N[C@H](CCCNC(=N)N)C(=O)N[C@H](CCCC)C(=O)N[C@H](CCCCN)C(=O)N[C@H](Cc1ccc2ccccc2c1)C(=O)N[C@H](CCCNC(=N)N)C(=O)N[C@H](CCCCN)C(N)=O [LV-12] (Ac-[dR][dK][dNle][dNle][d2Nal][dR][dNle][dK][d2Nal][dR][dK]-NH2)"
target_desc = "Pseudomonas aeruginosa ATCC 27853"
numeric_readout = 1

[[record]]
compound = "CC(=O)N[C@H](CCCNC(=N)N)C(=O)N[C@H](CCCCN)C(=O)N[C@H](CC(C)C)C(=O)N[C@H](CC(C)C)C(=O)N[C@H](Cc1ccccc1)C(=O)N[C@H](CCCNC(=N)N)C(=O)N[C@H](CC(C)C)C(=O)N[C@H](CCCCN)C(=O)N[C@H](Cc1ccccc1)C(=O)N[C@H](CCCNC(=N)N)C(=O)N[C@H](CCCCN)C(N)=O [LV-2] (Ac-[dR][dK][dL][dL][dF][dR][dL][dK][dF][dR][dK]-NH2)"
target_desc = "Pseudomonas aeruginosa ATCC 27853"
numeric_readout = 0


// switching to the query compound
Ask: # input compound: CC(=O)N[C@H](CCCNC(=N)N)C(=O)N[C@H](CCCCN)C(=O)N[C@H](CC(C)C)C(=O)N[C@H](CC(C)C)C(=O)N[C@H](Cc1ccc2ccccc2c1)C(=O)N[C@H](CCCNC(=N)N)C(=O)N[C@H](CC(C)C)C(=O)N[C@H](CCCCN)C(=O)N[C@H](Cc1ccc2ccccc2c1)C(=O)N[C@H](CCCNC(=N)N)C(=O)N[C@H](CCCCN)C(N)=O [LV-20] (Ac-[dR][dK][dL][dL][d2Nal][dR][dL][dK][d2Nal][dR][dK]-NH2) ; wanted: its Number of mice that died on each day after infection: day 5
Result: 0

###

System: Bacillus subtilis ATCC 6633
Assay type: cell-based
Non-standard residues stand in square brackets, D forms with d. Residues, ends and D or L forms follow the SMILES beside them. dPhe(4-CF3) = N[C@H](Cc1ccc(C(F)(F)F)cc1)C(=O)O
Measured Quantity: MIC Bacillus subtilis ATCC 6633

Ask: # input compound: CC(=O)N[C@H](CCCNC(=N)N)C(=O)N[C@H](CCCCN)C(=O)N[C@H](CC(C)C)C(=O)N[C@H](CC(C)C)C(=O)N[C@H](Cc1ccc(C(F)(F)F)cc1)C(=O)N[C@H](CCCCN)C(=O)N[C@H](CC(C)C)C(=O)N[C@H](CCCCN)C(=O)N[C@H](Cc1ccc(C(F)(F)F)cc1)C(=O)N[C@H](CCCCN)C(=O)N[C@H](CCCNC(=N)N)C(N)=O [LV-9] (Ac-[dR][dK][dL][dL][dPhe(4-CF3)][dK][dL][dK][dPhe(4-CF3)][dK][dR]-NH2) ; wanted: its MIC Bacillus subtilis ATCC 6633
Result: 8 µg/mL
